target: spike protein of SARS-CoV-2 strain B.1.351 (SARS-CoV-2, UniProt P0DTC2 14-1273); experiment: cell-based or functional assay
Readout Type: IC50 (FRNT, live virus neutralisation) (µg/mL)
Answer in µg/mL, number only, no unit symbol.

Binder	Readout Type	Output Unit	Reported Measurement
antibody 150 (antibody, V domains shown) VH: QVQLVESGGGLIQPGGSLRLSCAASGVTVSSNYMSWVRQAPGKGLEWVSIIYSGGTTYYADSVKGRFTISRDSSMNTLYLQMNSLRAEDTAVYYCARDLMVYGIDVWGQGTTVTVSS VL: EIVMTQSPSSLSASVGDRVTITCRASQGISSYLAWYQQKPGKAPKLLIYAASTLQSGVPSRFSGSGSGTDFTLTISSLQPEDFATYYCQQLDSYPPGYTFGQGTKVDIK	IC50 (FRNT, live virus neutralisation)	µg/mL	0.35

**Q:** Return reported IC50 (FRNT, live virus neutralisation). Input binder: antibody 318 (antibody, V domains shown) VH: QVQLVQSGPEVKKPGTSVKVSCKASGFTLTSSAMQWVRQARGQRLEWIGWIVVGSGNTNYAQKFQERVTITRDMSTSTAYMELSSLRSEDTAVYYCAAGRGYNSDFDYWGQGTLVTVSS VL: AIRMTQSPGTLSLSPGERATLSCRASQSVSSSYLAWYQQRPGQAPRLLIYGTSSRATGIPDRFSGSGSGTDFTLTISRLEPEDFAVYYCQQYGYSVYTFGQGTKVDIK
**A:** 0.019

The reported measurements were obtained from patent US20240043507A1.
